- PROTOCOL_NOTES: BSK_hDFCGF_Proliferation: Cell Proliferation Assessment in the BioMAP Diversity Plus: hDFCGF Assay (AID 2283059);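 note: curves fitted for both rise and fall of signal versus DMSO baseline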
- RECORDED_CONDITIONS: primary human foreskin fibroblasts
- Procedure: BSK_hDFCGF is a cell-based, multiplexed-readout assay that uses foreskin fibroblast, a human skin primary cell, with measurements taken at 24 hours after chemical dosing in a 96-well plate.BSK_hDFCGF_Proliferation is an assay component measured in the BSK_hDFCGF assay. It measures […] related to cell proliferation using Sulforhodamine staining technology.Data from the assay component BSK_hDFCGF_Proliferation was analyzed into 1 assay endpoint. […]
Calls of active or inactive are those of the source. Rule for the calls: active = hit-call score of the fitted dose curve at least 0.9, where 1 is the maximum; inactive = score below 0.9.
Classes used: true = active, false = inactive

                                    compound  class_assignment
 0                 CC(C)Nc1ccc(Nc2ccccc2)cc1              true
 1              OCC1CO1 (stereo unspecified)             false
 2                              COP(=O)(O)OC             false
 3                CCOP(=S)(OCC)SCS(=O)(=O)CC             false
 4  FC(F)(F)C(F)(C(F)(F)F)C(F)(F)C(F)(F)CC1CO1 (stereo unspecified)             false
 5  CCCCC(CC)COC(=O)c1c(Br)c(Br)c(Br)c(Br)c1C(=O)OCC(CC)CCCC (stereo unspecified)             false
 6                       ClC(Cl)(Cl)c1ccccc1             false
 7                           CCN(CC)c1ccccc1             false
 8  O=S1(=O)OCC2C(CO1)C1(Cl)C(Cl)=C(Cl)C2(Cl)C1(Cl)Cl (stereo unspecified)             false
 9         ClC(Cl)=C(c1ccc(Cl)cc1)c1ccccc1Cl              true
10              O=[N+]([O-])c1ccc(Cl)c(Cl)c1             false
11                          CC(Cl)(Cl)C(=O)O              true
12  Nc1cc2c3c(c1)C(c1ccccc1)=N[C@@H](NC(=O)c1cccnc1)C(=O)N3CC2             false
13  Cc1c([N+](=O)[O-])cc2c(c1[N+](=O)[O-])C(C)(C)CC2(C)C              true
14                             Cc1ccc(N)cc1N             false
15                            CCCCN(CCCC)N=O             false
16  O=C(O)C(F)(F)OC(F)(F)C(F)(F)OC(F)(F)C(=O)O             false
17  CCCN(CCC)c1c([N+](=O)[O-])cc(C(C)C)cc1[N+](=O)[O-]              true
18  N#Cc1c(-c2ccc(Cl)cc2)[nH]c(C(F)(F)F)c1Br              true
19  CCOP(=S)(Oc1ccc([N+](=O)[O-])cc1)c1ccccc1 (stereo unspecified)              true
20                              Cc1cccc(N)c1              true
21        O=P(Oc1ccccc1)(Oc1ccccc1)Oc1ccccc1              true
22                             O=C(O)C(Cl)Cl             false
23                  CCOC(=O)c1ccccc1C(=O)OCC             false
24                             Cc1ccc(O)cc1C             false
25  O=C(O)C(F)(OC(F)(F)C(F)(F)C(F)(F)F)C(F)(F)F (stereo unspecified)             false
